Proteasome caspase-like activity (S26 protein from RPMI8226 cells) (Homo sapiens (Human)) data, read-out pIC50
Sequence (P28072 whole entry): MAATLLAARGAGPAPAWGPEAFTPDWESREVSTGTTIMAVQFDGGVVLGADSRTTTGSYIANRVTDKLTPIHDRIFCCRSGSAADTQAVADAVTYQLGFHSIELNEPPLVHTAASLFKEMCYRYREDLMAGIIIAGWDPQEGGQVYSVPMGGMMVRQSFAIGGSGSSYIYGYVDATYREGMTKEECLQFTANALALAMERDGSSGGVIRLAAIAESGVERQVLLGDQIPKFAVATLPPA
pIC50: −log10 of the molar value.

>  <molecule>
CC(C)C[C@H](NC(=O)C1(Cc2ccccc2)CC(COCc2ccccc2)=NO1)B(O)O (stereo partly drawn) [Example 256]

>  <recorded endpoint>
pIC50

>  <experimental value>
< 6.00

$$$$

Q. I have this molecule here, CC(C)C[C@H](NC(=O)C1(Cc2ccccc2)CC(CNC(=O)c2cnn(C(C)C)c2)=NO1)B(O)O (stereo partly drawn) [Example 188] , and I need its recorded pIC50.
A. < 6.00

Q. I have this molecule here, CC(C)C[C@H](NC(=O)C1(Cc2ccccc2)CC(CNC(=O)c2cccc3c2ccn3C(C)C)=NO1)B(O)O (stereo partly drawn) [Example 134] , and I need its recorded pIC50.
A. < 6.30
